// reported Percent Effect for each item listed
Test system: Wolbachia pipientis
Test Summary: Anti-Wolbachia Cell-Based Screen
Type: functional
Parameters: scale not given: in the data most compounds retested in dose-response had high values
Condition Label: 5 µM
Hit rate of the full screen: of about 48,000 compounds, about 13,000 (27%) showed an effect of 50% or more. The list shows a part of the results.
Measurement Type: Percent Effect (%)

• COc1ccc(CNc2cnn(CC(F)F)c2)cc1 = 98.47
• COc1cccc(CNc2c(C)nn(C(C)C)c2C)c1.Cl = -5.673
• Cc1ccc([C@@H]2CN(C(=O)c3ccon3)C[C@H]2NC(=O)C2CC2)cc1 = -0.9032
• CC(C)(C)C(=O)N1CCN(C(=O)Nc2cnn(CC(F)F)c2)CC1 = 14.61
• CN(c1ncc(S(N)(=O)=O)s1)C1CCc2ccccc2C1 (stereo unspecified) = 1.957
• CCN(Cc1noc(C)n1)C(=O)C(c1cccc(C)c1)N(C)C (stereo unspecified) = 1.236

----------
System: Wolbachia pipientis
Test Summary: Anti-Wolbachia Cell-Based Screen
Format: functional
Set-up: scale not given: in the data most compounds retested in dose-response had high values
Condition Label: 5 µM
In all, about 48,000 compounds went through this assay and about 13,000 (27%) showed an effect of 50% or more. The list shows a part of the results.
// reported Percent Effect for each item listed
Measurement Type: Percent Effect (%)

* Cc1ccc(CN2CCC3(CCCN(S(C)(=O)=O)C3)C2)o1 (stereo unspecified) | -14.58
* CS(=O)(=O)N1Cc2ccccc2CC2(CCN(Cc3ccccn3)C2)C1 (stereo unspecified) | 113.9
* CS(=O)(=O)N1Cc2ccccc2CC2(CCN(Cc3ccncc3)C2)C1 (stereo unspecified) | 115
* CS(=O)(=O)N1CC2(CCN(Cc3ccccn3)C2)Cc2ccccc21 (stereo unspecified) | 111
* Cc1c(-c2c(-c3ccccc3)ncn2[C@H](CO)C(=O)O)cnn1C | -0.2965
* CC(NCc1cnc(C2CCC2)s1)c1cccc(-n2ccnc2)c1 (stereo unspecified) | -10.94

----------
System: Wolbachia pipientis
Test Summary: Anti-Wolbachia Cell-Based Screen
Assay type: functional
Design: scale not given: in the data most compounds retested in dose-response had high values
Condition Label: 5 µM
The campaign covered roughly 48,000 compounds. About 13,000 (27%) showed an effect of 50% or more. This is one part of the list.
// reported Percent Effect for each item listed
Measurement Type: Percent Effect (%)

* CC(O)C(=O)N1CCN(c2ccccc2Cl)C(=O)C1 (stereo not given) | -6.675
* O=C(O)C(F)(F)F.O=S(=O)(C1CC1)N1CC[C@H]2OCC[C@@]2(COc2ncccc2F)C1 | -5.546
* CS(=O)(=O)N1CC[C@H]2OCC[C@@]2(C(=O)NCCc2ccccn2)C1.O=C(O)C(F)(F)F | 88.95
* CC(C)C(NC(N)=O)C(=O)N1CCN(c2ccccc2Cl)C(=O)C1 (stereo not given) | 3.196
* O=C(NCc1ccccn1)[C@@]12CCO[C@@H]1CCN(Cc1ccccn1)C2.O=C(O)C(F)(F)F.O=C(O)C(F)(F)F.O=C(O)C(F)(F)F | 100.7

----------
// reported Percent Effect for each item listed
Test system: Wolbachia pipientis
Test Summary: Anti-Wolbachia Cell-Based Screen
Assay type: functional
Set-up: scale not given: in the data most compounds retested in dose-response had high values
Condition Label: 5 µM
Hit rate of the full screen: of about 48,000 compounds, about 13,000 (27%) showed an effect of 50% or more. The list shows a part of the results.
Measurement Type: Percent Effect (%)

* Cc1nc(C)c(C(=O)N2Cc3cc(F)ccc3CC2C)o1 (configuration not stated) | -9.907
* CCc1nsc(NC2CC(=O)N(C(C)(C)C)C2)n1 (configuration not stated) | -4.433
* O=C(CCC(=O)N1CCC(c2noc3cc(F)ccc23)CC1)NC1CC1 | 145.4
* Cc1noc(CN(C)C(=O)CCn2cnc3ccccc32)n1 | -9.657
* COc1c(CNCCC(=O)Nc2cccc(C)n2)c(C)nn1C | 6.6
* CC(C)C(C)n1nccc1NC(=O)Cn1cnc2ccccc21 (configuration not stated) | 92.25
* COc1ccc(C(=O)N(C2CC2)C2CC(=O)NC2=O)cc1 (configuration not stated) | -6.531
* OC(CN(Cc1ccccc1)Cc1ccncc1)c1cccs1 (configuration not stated) | 13.62
* COc1cc(C(=O)N(C2CC2)C2CC(=O)NC2=O)ccc1C (configuration not stated) | -10.25
* COCCn1c2c(ccc1=O)CC(NCc1cnn(C)c1)CC2 (configuration not stated) | 90.26
* COc1ccc2c(c1)OCC(CNC(=O)c1ccncc1)C2 (configuration not stated) | 2.151
* O=C(O)C(F)(F)F.O=C([C@@H]1COC[C@H]2CN(C3CCCC3)C[C@H]21)N1CCCCO1 | 2.547
* COc1ccccc1N1CCN(C(=O)CSC(C)C)C(C)C1 (configuration not stated) | -5.211
* COCCC(=O)N1CCCC(c2nc(O)cc(-c3ccncc3)n2)C1 (configuration not stated) | 119.6
* CC(C1CC1)n1nccc1NC(=O)CN(C)C(=O)OC(C)(C)C (configuration not stated) | 1.565
* CN(C)C(=O)CNC(CC(F)(F)F)c1ccc(Cl)cc1 (configuration not stated) | 1.329
* O=C1CC(N(C(=O)COc2ccc(F)cc2F)C2CC2)C(=O)N1 (configuration not stated) | 87.23
* CCN(C)S(=O)(=O)N1CCCC1CC(=O)c1cccs1 (configuration not stated) | 13.08
* CN1CCn2c(-c3cccc(F)c3)cnc2C12CCN(CC1CC1)CC2.O=C(O)C(F)(F)F.O=C(O)C(F)(F)F.O=C(O)C(F)(F)F | -9.47
* O=C(CCC(=O)N1CCNC(=O)C1c1cccc(F)c1)NC1CCCC1 (configuration not stated) | -14.56
* CC(C)N(CC(N)=O)Cc1csc(-c2ncccn2)n1 | 8.567
* COC(=O)C1CCN(C(=O)c2ccc(N(C)S(C)(=O)=O)c(C)c2)CC1 | -6.417
* O=C(O)CCC(=O)N1CCC(c2noc3cc(F)ccc23)CC1 | 117.2
* O=c1ccc2c(n1Cc1cccnc1)CCC(NCc1cccnc1)C2 (configuration not stated) | -5.878
* O=C1CC(N(C(=O)Cc2csc(-c3ccccc3)n2)C2CC2)C(=O)N1 (configuration not stated) | 1.029
* Cc1cccc(NC(=O)c2cccc(OCc3nnnn3C)c2)n1 | 73.29
* CC(=O)N1CCn2c(-c3cccc(F)c3)cnc2C12CCNCC2.O=C(O)C(F)(F)F | 7.148
* Cn1ccnc1-c1cnn(CC(=O)Nc2ccnn2C)c1 | -5.253
* CC(=O)Nc1ccc(CN2CCOC2=O)cc1 | -1.092
* CC(C)(C)CN[C@@H]1CO[C@H](CNC(=O)c2ccncc2)[C@H]1O | -9.96
* Cc1cc(CC(=O)NCC(O)COc2ccc(F)c(F)c2)no1 (configuration not stated) | -5.317
* CC(C)(NS(C)(=O)=O)C(=O)NCc1cccc(Br)c1 | -10.37
* CCn1c2c(ccc1=O)CC(NCc1cnn(C)c1)CC2 (configuration not stated) | 111.7
* CCSCCC(C)NC(=O)Nc1cccn(C)c1=O (configuration not stated) | -9.489
* O=C1CC(N(C(=O)c2ccc(-n3cccc3)cc2)C2CC2)C(=O)N1 (configuration not stated) | -5.765
* COc1cc(C(C)=O)ccc1SCC(=O)Nc1cccc(C)n1 | 6.413
* CC(C)c1nccn1CC(=O)Nc1ccnn1C(C)C(C)C (configuration not stated) | 205.7
* O=C(CCc1cc(O)no1)N1CCC(Cc2ccc(F)cc2)CC1 | -4.234
* CCC1CN(C(=O)Nc2cnc3c(cnn3C(C)C)c2)CCO1 (configuration not stated) | 6.429
* Cc1nc(C)c(C(=O)N2CCc3c(C)cccc32)o1 | -0.835
* Cc1cnc(NC2CCc3c(ccc(=O)n3CC3CC3)C2)nc1 (configuration not stated) | -5.786
* N#CC1(NC(=O)c2nccc3ccccc23)CCC1 | 2.644
* CN(C)CC1COCCN1C(=O)C1(c2cccs2)CCCC1.O=CO (configuration not stated) | -9.313
* NC(=O)COc1cccc(C(=O)Nc2cnc3n2CCCC3)c1 | 11.29
* CCc1cnc(NC2CCc3c(ccc(=O)n3C)C2)nc1 (configuration not stated) | -4.602
* CS(=O)(=O)CCC(=O)N1CCC(c2cccc(F)c2)C1 (configuration not stated) | -0.1646
* CC(NCc1cnc(C2CCC2)s1)c1ccc(-n2cccn2)cc1 (configuration not stated) | -14.42

----------
Tested on: Wolbachia pipientis
Test Summary: Anti-Wolbachia Cell-Based Screen
Type: functional
Parameters: scale not given: in the data most compounds retested in dose-response had high values
Condition Label: 5 µM
The whole screen tested about 48,000 compounds, of which about 13,000 (27%) showed an effect of 50% or more. This is one part of the list.
// reported Percent Effect for each item listed
Measurement Type: Percent Effect (%)

- Cc1ccc2cc(C(=O)N3CCN(S(C)(=O)=O)CC3)[nH]c2c1: -2.597
- Cc1noc(C)c1CN1CCCC1c1nc(-c2ccccc2)no1 (stereo unspecified): -6.071
- CCc1nnc2n1CCN(C(=O)c1cc3ccc(C)cc3[nH]1)C2: 95.03
- CCc1nnc2n1CCN(C(=O)c1cc3ccccc3[nH]1)C2: 108.3
- CCOC(C(=O)N1CCn2c(CC)nnc2C1)c1ccccc1 (stereo unspecified): 26.72
- CCc1nnc2n1CCN(C(=O)c1cc3ccc(F)cc3nc1C)C2: 4.903
- Cc1nc(C)c(C(=O)N2Cc3ccccc3OCC2Cn2ccnc2)o1 (stereo unspecified): -31.31
- Cc1noc(C)c1CN1CCCC1c1nnc2ccccn12 (stereo unspecified): 107.8
- CCc1nnc2n1CCN(C(=O)c1ccc(C(F)(F)F)nc1C)C2: 5.32
- CCOc1ccc2cc(C(=O)N3CCn4c(CC)nnc4C3)[nH]c2c1: 104.5
- Cc1noc(C)c1CN1CCCCC1c1nc(-c2ccccc2)no1 (stereo unspecified): 11.76
